System: ALAS2 (recombinant erythroid-specific 5-aminolevulinate synthase; hsALAS2 in transgenic MEL cells) (Homo sapiens)
Sequence (P22557 50-587): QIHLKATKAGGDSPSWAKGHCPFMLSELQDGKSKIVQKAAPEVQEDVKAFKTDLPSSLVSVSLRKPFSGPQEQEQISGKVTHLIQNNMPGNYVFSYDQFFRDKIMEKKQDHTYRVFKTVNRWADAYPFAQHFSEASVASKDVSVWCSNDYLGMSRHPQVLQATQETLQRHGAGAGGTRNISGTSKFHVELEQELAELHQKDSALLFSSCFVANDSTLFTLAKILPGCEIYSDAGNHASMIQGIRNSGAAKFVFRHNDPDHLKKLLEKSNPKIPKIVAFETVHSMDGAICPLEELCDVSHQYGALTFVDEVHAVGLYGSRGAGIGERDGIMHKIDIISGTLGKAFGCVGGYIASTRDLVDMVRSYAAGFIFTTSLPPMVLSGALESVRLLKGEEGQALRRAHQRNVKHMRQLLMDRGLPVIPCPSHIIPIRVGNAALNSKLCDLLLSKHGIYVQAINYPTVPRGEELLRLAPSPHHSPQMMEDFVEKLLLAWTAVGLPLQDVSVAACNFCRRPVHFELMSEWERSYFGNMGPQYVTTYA
Test summary: discontinuous colorimetric assay of ALA
Measured metric: pKi
Convention used: pKi is expressed as -log10 of the molar concentration.

Indicate the recorded pKi value for this compound: C=C(CC(=O)SCCNC(=O)CCNC(=O)[C@H](O)C(C)(C)COP(=O)(O)OP(=O)(O)OC[C@H]1O[C@@H](n2cnc3c(N)ncnc32)[C@H](O)[C@@H]1OP(=O)(O)O)C(=O)O
4.00

Data credit: paper PMC9153040
